List of EC50 values.
tested on: SDH-KO-HRAS cells (SDHB-deficient); experiment: Cellular / differential toxicity assay (CellTiter-Glo, 3 days); type: cell-based, murine; details: Mus musculus, 72 h, toxicity, SDH-KO cells, 3 days, CellTiter-Glo; read-out: EC50 (uM) SDH-KO-HTAS-C17

Worked examples follow.
>>> test_result("CC1(C)Cc2nc3sc4c(NCCc5ccc6[nH]nnc6c5)ncnc4c3cc2CO1")
"< 1 µM"
>>> test_result("COc1cccc(CCNc2ncnc3c2sc2nc4c(cc23)COC(C)(C)C4)c1OC")
"> 10 µM"
>>> test_result("CCCc1nc(NCCc2ccc3[nH]cnc3c2)c2sc3nc4c(cc3c2n1)COC(C)(C)C4")
"3 to 10 µM"
>>> test_result("CC1(C)Cc2nc3sc4c(NCCc5ccc6c(c5)OCCO6)ncnc4c3cc2CO1")
"> 10 µM"
>>> test_result("CCCCCCCCNc1ncnc2c1sc1nc3c(cc12)COC(C)(C)C3")
"> 10 µM"
>>> test_result("CCCCN(C)c1nc(C)nc2c1sc1nc3c(cc12)COC(C)(C)C3")
"> 10 µM"
>>> test_result("CN(c1ccc(CCNc2ncnc3c2sc2nc4c(cc23)COC(C)(C)C4)cc1)S(C)(=O)=O")
"3 to 10 µM"
>>> test_result("CCN(CC)CCNc1ncnc2c1sc1nc3c(cc12)COC(C)(C)C3")
"> 10 µM"

Q: Which measured EC50 value corresponds to `CC1(C)Cc2nc3sc4c(N(CCO)Cc5ccccc5)ncnc4c3cc2CO1` ?
Result: > 10 µM

Q: Now give it for `CC1(C)Cc2nc3oc4c(NCCc5ccc6[nH]cnc6c5)ncnc4c3cc2CO1` too.
Result: < 1 µM

* * *

tested on: SDH-KO-HRAS cells (SDHB-deficient); assay: Cellular / differential toxicity assay (CellTiter-Glo, 3 days); format: cell-based, murine; conditions: Mus musculus, 72 h, toxicity, SDH-KO cells, 3 days, CellTiter-Glo; read-out: EC50 (uM) SDH-KO-HTAS-C17
Overview of recorded EC50 for various molecules

Solved cases below.
>>> test_result("COCOCCOCCOCCOCc1c2c(nc3sc4c(NCCc5ccc6[nH]cnc6c5)ncnc4c13)CC(C)(C)OC2")
"1 to 3 µM"
>>> test_result("COc1ccc(CCNc2ncnc3c2sc2ncccc23)cc1OC")
"1 to 3 µM"
>>> test_result("Cc1nc(NCCCN(C)C)c2sc3nc4c(cc3c2n1)COC(C)(C)C4")
"> 10 µM"
>>> test_result("CCN(CC)c1ncnc2c1sc1nc3c(cc12)COC(C)(C)C3")
"3 to 10 µM"
>>> test_result("COc1ccc(CCn2cnc3c(sc4nc5c(cc43)COC(C)(C)C5)c2=O)cc1F")
"> 10 µM"

Read the next record carefully.
Q: Give EC50 (SDH-KO-HRAS cells (SDHB-deficient)) of the following molecule: `CCN(CC)CCCNc1ncnc2c1sc1nc3c(cc12)COC(C)(C)C3`
Result: > 10 µM

* * *

tested on: SDH-KO-HRAS cells (SDHB-deficient); assay: Cellular / differential toxicity assay (CellTiter-Glo, 3 days); type: cell-based, murine; settings: Mus musculus, 72 h, toxicity, SDH-KO cells, 3 days, CellTiter-Glo; read-out: EC50 (uM) SDH-KO-HTAS-C17
Quantity Measured: EC50

>>> test_result("CC(C)CCNc1ncnc2c1sc1nc3c(cc12)COC(C)(C)C3")
"> 10 µM"
>>> test_result("COCCOCc1c2c(nc3sc4c(NCCc5ccc6[nH]cnc6c5)ncnc4c13)CC(C)(C)OC2")
"< 1 µM"
>>> test_result("COCCOCCOCCOCCNC(=O)c1c2c(nc3sc4c(NCCc5ccc6[nH]cnc6c5)ncnc4c13)CC(C)(C)OC2")
"3 to 10 µM"

Q: What EC50 value was documented for this compound, `Cc1nc2cc(CCNc3ncnc4c3sc3nc5c(cc34)COC(C)(C)C5)ccc2[nH]1` ?
Result: < 1 µM

Q: Further, for `CC1(C)Cc2nc3c(c(S(C)(=O)=O)c2CO1)-c1ncnc(NCCc2ccc4[nH]cnc4c2)c1S3(=O)=O` ?
Result: 3 to 10 µM

Q: One more compound: CCOC1CCc2nc3sc4c(NCCc5ccc(OC)c(F)c5)ncnc4c3cc2C1 (stereo not shown)
Result: > 10 µM

Q: Same again, this time with `COCCOCCOCCOCc1c2c(nc3sc4c(NCCc5ccc6[nH]cnc6c5)ncnc4c13)CC(C)(C)OC2`
Result: < 1 µM
